System: HCC-2998 colon
procedure details: NCI tumour cell line growth inhibition, 48 h
Here, each record is paired with measured TGI data.

{"compound": "CCO/C(O)=C(/C(=N)N1CCCC1)C(=O)Nc1ccc(Cl)cc1", "TGI": "> 100 µM"}
{"compound": "C=C1CC(COc2ccc3ccc(=O)oc3c2)(c2ccccc2)OC1=O (stereo unspecified)", "TGI": "2.48 µM"}
{"compound": "COc1cc(-c2nc3ccccc3s2)ccc1OCc1nc2n(n1)S(=O)(=O)c1ccccc1N2C", "TGI": "> 100 µM"}

Lookup result for `O=C(O)CNCc1c2ccccc2[n+]([O-])c2ccccc12` ; measured TGI: > 100 µM

Lookup result for O=C(Nc1ccccc1)C(=O)C(C(=O)c1ccccc1)C(c1ccccc1)c1ccccc1 (stereo unspecified) ; measured TGI: > 10 µM

Lookup result for `COc1ccc(/C=C/[N+](=O)[O-])cc1` ; measured TGI: 2.73 µM

----------
Test system: COLO 205 colon
procedure details: NCI tumour cell line growth inhibition, 48 h
Here, each record is paired with measured TGI data.

The following compounds have reported results that may help.
{"compound": "COc1ccc2c(c1)Cc1c-2c(NN)nc2ccccc12", "assayed target": "COLO 205 colon", "parameter": "TGI", "result": "> 100 µM"}
{"compound": "CC(C)N1CCCOC(c2ccc([N+](=O)[O-])cc2)O1 (stereo unspecified)", "assayed target": "COLO 205 colon", "parameter": "TGI", "result": "> 100 µM"}
{"compound": "Nc1nncs1", "assayed target": "COLO 205 colon", "parameter": "TGI", "result": "> 3840 µM"}
{"compound": "CCOC(=O)/C=C1\\Nc2ccccc2-n2nnnc21", "assayed target": "COLO 205 colon", "parameter": "TGI", "result": "> 100 µM"}

Lookup result for Cc1c(Cl)ccc2c1NC(=O)C2(O)C1Cc2ccccc2C1=O (stereo unspecified) ; measured TGI: > 100 µM

Lookup result for Cc1cc(NCC2CC/C(=C\C=C\c3ccccc3)C2=O)no1 (stereo unspecified) ; measured TGI: > 100 µM

Lookup result for `COc1cc(C(=O)n2nc(N3CCN(C)CC3)c3cc(N)ccc32)cc(OC)c1OC` ; measured TGI: 37.3 µM

Lookup result for `CCCC(=O)NNc1[nH]c(-c2ccc(OC)cc2)cc1C(=O)OCC` ; measured TGI: 5.89 µM

----------
System: RXF 393 renal
procedure details: NCI tumour cell line growth inhibition, 48 h
parameter: TGI

The following molecules have reported results that may help.
{"molecule": "CC(CCC(=O)O)[C@H]1CCC2[C@H]3C(CC(=O)[C@@]21C)[C@@]1(C)CCC(O)C[C@H]1C[C@@H]3O (stereo partly specified)", "TGI": "> 100 µM"}
{"molecule": "COc1ccc(OC)c2cc(C3(C)SCCCS3)ccc12", "TGI": "77 µM"}
{"molecule": "CNC(=S)NNC1=NCCCCN1", "TGI": "> 100 µM"}
{"molecule": "O=C(NCC#CCO)C(F)(F)F", "TGI": "> 100 µM"}
{"molecule": "C[C@@H]1OC2(O)[C@@H]3CCCN3C(=O)N(Cc3ccccc3)N2C1=O (stereo partly specified)", "TGI": "> 100 µM"}

// below: TGI requested for another molecule
Lookup result for `COc1ccc2c(c1)Cc1c-2c(NN)nc2ccccc12` ; measured TGI: > 100 µM
